test system: Factor XI protein; test: Cynomolgus monkeys: plasma Factor XI protein ELISA (Example 29); format: in vivo; conditions: escalating doses 5, 10, 25 mg/kg s.c., day 36
In the oligonucleotide strings, read from the 5' end, every base follows the letter of its sugar. An asterisk marks phosphorothioate; unmarked linkages are phosphodiester. Other units and linkages are bracketed, terminal groups are in braces. A string of capitals states the bases alone. e = 2'-O-(2-methoxyethyl) (MOE); [5mC] = 5-methylcytosine; d = 2'-deoxy (DNA)
readout_label: Inhibition of Factor XI protein relative to the PBS control (%)
Answers are plain numbers, in %.

// fetch Factor XI protein Inhibition of Factor XI protein relative to the PBS control for ISIS 416838: gapmer of Table 6 (antisense eG*e[5mC]*eA*eA*e[5mC]*d[5mC]*dG*dG*dG*dA*dT*dG*dA*dT*dG*eA*eG*eT*eG*e[5mC]) 11

// fetch Factor XI protein Inhibition of Factor XI protein relative to the PBS control for ISIS 417002: gapmer of Table 8 (antisense eG*eG*dT*dG*d[5mC]*dA*d[5mC]*dA*dG*dT*dT*dT*d[5mC]*dT*dG*eG*e[5mC]*eA*eG*eG) 8

// fetch Factor XI protein Inhibition of Factor XI protein relative to the PBS control for ISIS 416864: gapmer of Table 8 (antisense eG*eG*e[5mC]*eA*eG*d[5mC]*dG*dG*dA*d[5mC]*dG*dG*d[5mC]*dA*dT*eT*eG*eG*eT*eG) 9

// fetch Factor XI protein Inhibition of Factor XI protein relative to the PBS control for ISIS 416850: gapmer of Table 8 (antisense eT*eG*e[5mC]*eA*e[5mC]*dA*dG*dT*dT*dT*d[5mC]*dT*dG*dG*d[5mC]*eA*eG*eG*e[5mC]*e[5mC]) 17

Now for another entry.
// fetch Factor XI protein Inhibition of Factor XI protein relative to the PBS control for ISIS 416858: gapmer of Table 8 (antisense eA*e[5mC]*eG*eG*e[5mC]*dA*dT*dT*dG*dG*dT*dG*d[5mC]*dA*d[5mC]*eA*eG*eT*eT*eT) 35
